Reference for the values: the supplement of paper PMC9170038

Tested on: MS2 coat protein
METHOD_DESCRIPTION: apparent KD of MS2 coat protein, switch OFF state (with FMN for OFF switches, without FMN for ON switches); designed switch direction (-1 OFF switch, 1 ON switch): -1; higher = weaker reporter binding
MEASUREMENT_PARAMETERS: FMN input: 0 or 200 uM; Eterna round: R93 (includes R88 designs)
Classification scheme (apparent KD of MS2 coat protein): class A = under 40 nM, class B = from 40 nM up to 90 nM, class C = 90 nM and over

{"SEQ_TEXT": "AAGAGGCUAGGAUAUACACAUCUGAUGACUCAACCUAAAACACAUGAGGAUCACCCAUGUAGAAGGAGCGAAAG [Qucequor]", "CATEGORY": "class A"}
{"SEQ_TEXT": "AAAUGACUAGGAUAUACAUGAGGAUCACCCAUGUGUAUAAAUAAAUACACAAAAGAAAGUAGAAGGAGUCAAAG [Mat - Exclusion 3 - Mayanna mod - D123]", "CATEGORY": "class B"}
{"SEQ_TEXT": "AACAGGUCAGGAUAUGUGCAACAGAAAAGAGCAGAAUAAGCACAGAAGGGACAUGAGGAUCACCCAUGUUAACA [May 27]", "CATEGORY": "class A"}
{"SEQ_TEXT": "AAAGGACGAGGAUAUACAUGAGGAUCACCCAUGUAAAAAACAUAAUAAAAGAACUUAUGUAGAAGGCGUCCAAA [Meechl Ex3 2 R1 - Copy of Meechl Ex3 2 from Round 1]", "CATEGORY": "class C"}
{"SEQ_TEXT": "AAAGGACGAGGAUAUACAUGAGGAUCACCCAUGUAAAAAACAUAGUAAAAGAACUUGUGUAGAAGGCGUCCAAA [Meechl Ex3 2 R2 v7]", "CATEGORY": "class C"}
{"SEQ_TEXT": "AGAAAACAUGAGGAUCACCCAUGUCAGGAUAUACAAAAUAAAAUAAAAAUAAAAUAAAGUAGAAGGGACAAAGA [Mat - Same state - Mayanna Mod - D109]", "CATEGORY": "class B"}
{"SEQ_TEXT": "GGUUGGCGAGGAUAUACAUGAGGAUCACCCAUGUGAGAGAAAAAAGUGAGAACGAAAAGUAGAAGGCGCUGACG [salish99-ex3-25]", "CATEGORY": "class C"}
{"SEQ_TEXT": "GAAAAGUCAGGAUAUGCGAAGGCGUCUGAUAGACGAGGCUAGCAGAAGGGACAUGAGGAUCACCCAUGUGGAAG [Mat - Exclusion 4 - Eli mod - D90]", "CATEGORY": "class C"}
{"SEQ_TEXT": "CUCUAGUCAGGAUAUUCAAGAAAAGAAAAGAAAGAAAAGAAGAAGAAGGGACAUGAGGAUCACCCAUGUAAGAA [EteRNA is fun!]", "CATEGORY": "class B"}
{"SEQ_TEXT": "AGUUGGCGAGGAUAUACAUGAGGAUCACCCAUGUGAGAGAAAAAAGUGAGAAAGAAAAGUAGAAGGCGCGGACA [Ruby 1]", "CATEGORY": "class B"}
{"SEQ_TEXT": "AAAAAACAUGAGGAUCACCCAUGUCAGGAUAUCUGUAUUCAAUCCUCGGAUUGAAUACAGAGAAGGGACAUGAA [Ex1: 603]", "CATEGORY": "class C"}
{"SEQ_TEXT": "GCUGGCCUAGGAUAUACAUGAGGAUCACCCAUGUGAGAGAAAAAAGUGAGAAAGAAAAGUAGAAGGAGGUUAGG [salish99-ex3-115]", "CATEGORY": "class B"}
{"SEQ_TEXT": "AACAAGUAAGGAUAUGCUGCUCGUCACAAAAGUGAUGAGUAGCAGAAGGUACAUGAGGAUCACCCAUGUAAAGA [JL eternac mod 16]", "CATEGORY": "class A"}
{"SEQ_TEXT": "AAAAAGUCAGGAUAUGCUUAUAAUAAGAAAAUUAGAGAUAUGCAGAAGGGACAUGAGGAUCACCCAUGUAAAAA [Ex 4.1]", "CATEGORY": "class A"}
{"SEQ_TEXT": "AACAAGUCAGGAUAUACAAAAAGUAAAUAAGUAAAACAAAAGUAGAAGGGACAUGAGGAUCACCCAUGUAAAUA [JR_Exc004_Sub018]", "CATEGORY": "class A"}
{"SEQ_TEXT": "AGAAUACAUGAGGAUCACCCAUGUGAGGAUAUCCAAAGAAAAAGAAAAGAAAAGAAAAGGAGAAGGCACAAAAG [EX 1 May 13]", "CATEGORY": "class B"}
{"SEQ_TEXT": "GGUUGCGUAGGAUAUACAUGAGGAUCACCCAUGUGAGAGAAAAAAGUGAGAAAGAAAAGUAGAAGGACGUGACG [salish99-ex3-125]", "CATEGORY": "class B"}
{"SEQ_TEXT": "GAGGCUGAAGGAUAUACAAGGGCCUCACCGCCAAGGCGGAAACAUGAGGAUCACCCAUGUAGAAGGUCAAUAAA [Usrisore]", "CATEGORY": "class C"}
{"SEQ_TEXT": "AACAAGUGAGGAUAUCUGGAUAGGAAAAAGAAAACCUAUCCAGAGAAGGCACAUGAGGAUCACCCAUGUAAAAA [JL cataway mod 6]", "CATEGORY": "class A"}
{"SEQ_TEXT": "AAAAAACAUGAGGAUCACCCAUGUUAGGAUAUUCCUAAAAAAAAAAAAAAAAAAAAUGGAAGAAGGAACAAAAA [excalibur10]", "CATEGORY": "class A"}
{"SEQ_TEXT": "UUUCACCUAGGAUAUACAUGAGGAUCACCCAUGUGAGGCGAAGGACGGAGGGAUGGUAGUAGAAGGAGGACAAG [Mod of Gedier]", "CATEGORY": "class A"}
{"SEQ_TEXT": "AGCUAGUCAGGAUAUACGAGAAAGAAAGAAGAAGUGAAGGGACAUGAGGAUCACCCAUGUAGAAGGGACUAGCA [Diamond 27]", "CATEGORY": "class C"}
{"SEQ_TEXT": "AAGCUGGUAGGAUAUACUAGGGCGACUAAUGCGCCGAUAGGACAUGAGGAUCACCCAUGUAGAAGGGCCAGAAA [JR_Exc002_Sub406]", "CATEGORY": "class B"}
{"SEQ_TEXT": "GAAAAGCAAGGAUAUACAUGAGGAUCACCCAUGUGGAAUGGCGUGACCUAAAGAAAAGGUAGAAGGUGCACGUG [Soangebi]", "CATEGORY": "class C"}
{"SEQ_TEXT": "CUUAUGUAAGGAUAUCAGUAGUAAAAAAAUAAAAUUACUACUGAGAAGGUACAUGAGGAUCACCCAUGUCCGGG [EX4 375: Super Stable 75]", "CATEGORY": "class A"}
